Measured log10 IC50 of individual entries
- target.entity: HIV integrase (Human immunodeficiency virus type 1 group M subtype B, UniProt P12497, F1332H)
- Construct: HIV integrase full length gene
- experiment: Determination of enzyme (HIV integrase) inhibitory activity (strand transfer, microtiter plate, absorbance at 450 nm)
- applied.conditions: recombinant HIV integrase (F185H) expressed in E. coli; donor DNA on streptavidin plate, digoxigenin target DNA; 37° C.
measured.property: log10 IC50 (log10 of the value in nM)

# compound.smiles, log10 IC50
records = [
    ("CCCCn1cc(C(=O)O)c(=O)c2cc(Cc3cccc(Cl)c3Cl)ccc21", 2.26),
    ("O=C(O)c1cn(CCO)c2cc(C(F)(F)F)c(Cc3cccc(Cl)c3Cl)cc2c1=O", 2.90),
    ("O=C(O)c1cn([C@H](CO)CC2CCCCC2)c2ccc(Cc3cccc(Cl)c3F)cc2c1=O", 0.46),
    ("COCCn1cc(C(=O)O)c(=O)c2cc(Cc3cccc(Cl)c3Cl)ccc21", 2.26),
    ("CC(C)n1cc(C(=O)O)c(=O)c2cc(Cc3cccc(Cl)c3Cl)ccc21", 1.66),
    ("COc1c(Cl)cccc1Cc1ccc2c(c1)c(=O)c(C(=O)O)cn2CCO", 2.28),
    ("CNc1cc(Cc2cccc(Cl)c2F)cc2c(=O)c(C(=O)O)cn(CCO)c12", 1.32),
    ("CCNc1cc(Cc2cccc(Cl)c2F)cc2c(=O)c(C(=O)O)cn(CCO)c12", 0.94),
    ("CCOc1cc(Cc2cccc(Cl)c2F)cc2c(=O)c(C(=O)O)cn([C@@H](C)CO)c12", 0.81),
    ("CCc1ccccc1Cc1ccc2c(c1)c(=O)c(C(=O)O)cn2CCO", 2.74),
    ("CC[C@@H](CO)n1cc(C(=O)O)c(=O)c2cc(Cc3cccc(Cl)c3F)c(SC)cc21", 0.65),
    ("CC(C)Oc1cc(Cc2cccc(Cl)c2F)cc2c(=O)c(C(=O)O)cn(CCO)c12", 0.90),
    ("CC(C)Oc1cc2c(cc1Cc1cccc(Cl)c1F)c(=O)c(C(=O)O)cn2[C@H](CO)C1CCCCC1", 0.63),
    ("Cn1cc(C(=O)O)c(=O)c2cc(Cc3cccc(Cl)c3Cl)ccc21", 2.26),
    ("O=C(O)c1cn(CCc2ccccn2)c2ccc(Cc3cccc(Cl)c3Cl)cc2c1=O", 2.32),
    ("COc1cc(Cc2cccc(Cl)c2Cl)cc2c(=O)c(C(=O)O)cn(CCO)c12", 1.15),
    ("CCOc1cc(Cc2cccc(Cl)c2F)cc2c(=O)c(C(=O)O)cn([C@@H](CC)CO)c12", 0.65),
]
